Recorded values, source patent US20180355059A1.

target.of.assay: T1, recombinant human PCSK9 protein, His-tagged (Immunogen A, hPCSK9-His) (human, UniProt Q8NBP7 31-692, limits assumed, biotin-labelled in the ELISA and blocking assays (Biotin labeling kit))
T1 construct: also called human PCSK9-His; recombinant hPCSK9-His; not shown: His tag
assay: ELISA, biotin-hPCSK9-His on streptavidin plate; antibody 66.67 nM
property: OD450 nm (OD450 nm)
Report the value in OD450 nm with no unit label.

[Q] Could you share which OD450 nm value was measured for 152G2F7, chimeric anti-PCSK9 mAb purified from hybridoma (antibody, V domains shown, From Harbour H2L2 mice: human variable regions, rat constant regions) VH: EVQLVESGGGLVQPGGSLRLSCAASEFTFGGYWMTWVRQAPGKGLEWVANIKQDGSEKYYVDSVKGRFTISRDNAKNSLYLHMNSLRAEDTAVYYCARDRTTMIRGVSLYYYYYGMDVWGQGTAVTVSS VL: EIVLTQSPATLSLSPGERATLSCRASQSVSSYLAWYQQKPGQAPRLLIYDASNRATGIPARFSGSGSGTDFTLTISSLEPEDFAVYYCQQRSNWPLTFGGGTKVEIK ?
[A] 2.91
